I'd be grateful if you could share measured Biofilm Formation for these entries.
System: Vibrio aquamarinus DSM 26054
assay-details: Biofilm formation, crystal violet assay
Assay type: cell-based
condition-details: V. aquamarinus DSM 26054; 1 × 10^−6 M; control = 100%
Marks after values point to notes of the source that are not given here.

## Task What reported Biofilm Formation corresponds to COc1ccc(NC(=O)N2CCCC2c2ccc(Nc3c([N+](=O)[O-])c(Cl)cc4c3no[n+]4[O-])cc2O)cc1 (stereo not drawn) [6c] on Vibrio aquamarinus DSM 26054?
## Result 18.28 * %

## Task Which Biofilm Formation is reported with Vibrio aquamarinus DSM 26054 for this entry: O=C(Nc1ccc(F)cc1)N1CCCC1c1ccc(Nc2c([N+](=O)[O-])c(Cl)cc3c2no[n+]3[O-])cc1O (stereo not drawn) [6e] ?
## Result 26.02 * %

## Task Hi! What's the reported Biofilm Formation for O=[N+]([O-])c1c(Cl)cc2c(no[n+]2[O-])c1Nc1cccc(O)c1 [compound 4] on Vibrio aquamarinus DSM 26054?
## Result 43.56 * %

## Task Identify the measured Biofilm Formation of O=C(Nc1ccc(Br)cc1)N1CCCC1c1ccc(Nc2c([N+](=O)[O-])c(Cl)cc3c2no[n+]3[O-])cc1O (stereo not drawn) [6d] for Vibrio aquamarinus DSM 26054.
## Result 24.11 * %

## Task Hi! What's the reported Biofilm Formation for O=C(Nc1ccccc1)N1CCCC1c1ccc(Nc2c([N+](=O)[O-])c(Cl)cc3c2no[n+]3[O-])cc1O (stereo not drawn) [6b] on Vibrio aquamarinus DSM 26054?
## Result 39.02 * %

## Task Identify the measured Biofilm Formation of CC[C@H]1OC(=O)[C@H](C)[C@@H](O[C@H]2C[C@@](C)(OC)[C@@H](O)[C@H](C)O2)[C@H](C)[C@@H](O[C@@H]2O[C@H](C)C[C@H](N(C)C)[C@H]2O)[C@](C)(O)C[C@@H](C)CN(C)[C@H](C)[C@@H](O)[C@]1(C)O [Azithromycin, reference compound] for Vibrio aquamarinus DSM 26054.
## Result 103.80%

----------
I'd appreciate it if you could supply MST ± SD values for the items below.
Test system: P388 murine leukemia
assay-details: In vivo anti-tumor activity, i.p. implanted leukemia
Parameters: species or system BDF1 hybrid male mice
condition-details: 55 mg/kg/day i.p., days 1, 5, 9; P388
Experimental: Animals. In vivo experiments were performed using the BDF1 hybrid male mice of 22–24 g weight. The experimental animals were caged in a standard vivarium in 12 h light conditions with free access to food and water. […] Anti-tumor activity. […] The efficacy of the therapy against leukemia (defined as increase in lifespan—ILS) was assessed as the percentage of the median survival time (MST) of the treated group (t) to that of the control group (c): ILS(%) = (MSTt/MSTc) × 100. […]
Number in days, nothing else.

## Task Fill in: MST ± SD of O=C(Nc1ccccc1)N1CCCC1c1cc2c(cc1O)OCO2 (stereo not shown) [5b] is ___
## Result 18.0

## Task Request the reported MST ± SD associated with Cc1cc(O)c(C2CCCN2C(=O)NCCN(C)C)c(=O)o1.O=C(O)C(F)(F)F (stereo not shown) [7h]
## Result 10.7

## Task Which MST ± SD value is on record for CN(C)CCNC(=O)N1CCCC1c1cc2c(cc1O)OCO2.O=C(O)C(F)(F)F (stereo not shown) [5h] ?
## Result 38.0

## Task Can you look up the measured MST ± SD of CN(C)CCNC(=O)N1CCCC1c1c(O)c2ccccc2oc1=O.O=C(O)C(F)(F)F (stereo not shown) [8h] for me?
## Result 19.8
